# TARGET_ENTITY: T1, His-KsgA (1-273) (Escherichia coli, UniProt P06992 1-273)
# T1 sequence: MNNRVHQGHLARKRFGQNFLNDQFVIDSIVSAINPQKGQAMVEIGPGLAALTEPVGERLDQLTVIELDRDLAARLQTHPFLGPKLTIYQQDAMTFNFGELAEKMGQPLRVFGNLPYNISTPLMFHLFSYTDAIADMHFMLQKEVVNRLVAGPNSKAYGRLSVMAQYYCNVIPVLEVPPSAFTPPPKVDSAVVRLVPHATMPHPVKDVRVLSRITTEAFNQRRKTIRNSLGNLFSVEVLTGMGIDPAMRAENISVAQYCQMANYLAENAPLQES
# TEST_PROTOCOL: EMSA; 100 pmol protein, 10 fmol DNA, 500 ng calf thymus DNA; EMSA, 10 ul, 4 C, 60 min: 25 mM Tris-HCl pH 8.0, 500 uM DTT, 500 uM EDTA, 10% glycerol, 25 mM NaCl, 25 mM KCl, 10 uM ZnCl2, 125 uM each dNTP, 4 mM spermidine, 500 ng calf thymus DNA, 10 fmol 32P-dsDNA, 100 pmol protein; 12% PAGE
# CONDITION_DETAILS: protein: recombinant; tags: His (pET21a(+), BamHI/XhoI); label: 5'-32P
ENDPOINT_LABEL: binding result

// solved cases for binding result follow
5-ohC/G duplex (dsDNA, 5-hydroxycytosine (5-ohC) opposite G) DNA 1: GAACTAGTGCATCCCCCGGGCTGC DNA 2: GCAGCCCGGGGGATGCACTAGTTC ... binds
5-foU/C duplex (dsDNA, 5-formyluracil (5-foU) opposite C) DNA 1: GGTACCTTCAGTCGACC DNA 2: GGTCGACTUAAGGTACC ... binds
Tg/C duplex (dsDNA, thymine glycol (Tg) opposite C) DNA 1: GCTGCCCGGGGGTTCCTCTTGTTC DNA 2: GAACAAGAGTAACCCCCGGGCAGC ... binds
5-ohC/T duplex (dsDNA, 5-hydroxycytosine (5-ohC) opposite T) DNA 1: GAACTAGTGCATCCCCCGGGCTGC DNA 2: GCAGCCCGGGGGATTCACTAGTTC ... binds

[Q] What value of binding result has been reported for the following binder? 5-ohC/A duplex (dsDNA, 5-hydroxycytosine (5-ohC) opposite A) DNA 1: GAACTAGTGCATCCCCCGGGCTGC DNA 2: GCAGCCCGGGGGATACACTAGTTC
[A] binds

[Q] Another binder: 5-ohC/C duplex (dsDNA, 5-hydroxycytosine (5-ohC) opposite C) DNA 1: GAACTAGTGCATCCCCCGGGCTGC DNA 2: GCAGCCCGGGGGATCCACTAGTTC
[A] binds
